Entries and their OD450 values follow.
Target: Peptide 1: Biotin-…-[Tyr(PC)]-acid
Sequence (peptide, as listed by the source): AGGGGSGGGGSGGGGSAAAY
Assay Comment: scFv ELISA
Experimental Readout: OD450 (OD450)

1. PcOxP_DB01_D11 (scFv, V domains shown, scFv in periplasmic extract) VH: EVQLLESGGGLVQPGGSLRLSCAASGFTFSSYYMEWVRQAPGKGLEWVAASRNKANDYTTEYADSVKGRFTISRDNSKNTLYLQMNSLRAEDTAVYYCARDYYGSSYWYNDVWGQGTLVTVSS VL: DIVMTQSPDSLAVSLGERATINCTASESLYSSKWKVHYLAWYQQKPGQPPKLLIYGASNRYIGVPDRFSGSGSGTDFTLTISSLQAEDVAVYYCAQFYSYPLTFGGGTKVEIK : 1.37
2. PcOxP_DB04_C03 (scFv, V domains shown, scFv in periplasmic extract) VH: EVQLLESGGGLVQPGGSLRLSCAASGFTTSDFYMEWVRQAPGKGLEWVAASRNKANSYTTEYADSVKGRFTISRDNSKNTLYLQMNSLRAEDTAVYYCARDYYGSSYWYFDVWGQGTLVTVSS VL: DIQMTQSPSSLSASVGDRVTITCTASESLYSSKHKVHYLAWYQQKPGKAPKLLIYGASSLYSGVPSRFSGSGSGTDFTLTISSLQPEDFATYYCAQFYEYPLTFGGGTKVEIK : 1.34
3. PcOxP_DB02_B06 (scFv, V domains shown, scFv in periplasmic extract) VH: EVQLLESGGGLVQPGGSLRLSCAASGFTFSDNYMEWVRQAPGKGLEWVAASRNKANDYTTEYADSVKGRFTISRDNSKNTLYLQMNSLRAEDTAVYYCARDYYGSSYWYFDVWGQGTLVTVSS VL: DIQMTQSPSSLSASVGDRVTITCTASESLYSSKHKVHYLAWYQQKPGKAPKLLIYGASNRYIGVPSRFSGSGSGTDFTLTISSLQPEDFATYYCTQFYSYPLTFGGGTKVEIK : 0.35
4. PcOxP_DB04_A10 (scFv, V domains shown, scFv in periplasmic extract) VH: EVQLLESGGGLVQPGGSLRLSCAASGDTFSDFYMEWVRQAPGKGLEWVAASRNKWNDYTTEYADSVKGRFTISRDNSKNTLYLQMNSLRAEDTAVYYCARDYYGSSYWYFDVWGQGTLVTVSS VL: DIQMTQSPSSLSASVGDRVTITCTASESLYSSKHKVHYLAWYQQKPGKAPKLLIYGASNRQIGVPSRFSGSGSGTDFTLTISSLQPEDFATYYCAQFYSYPLTFGGGTKVEIK : 0.74
5. PcOxP_DB02_D01 (scFv, V domains shown, scFv in periplasmic extract) VH: EVQLLESGGGLVQPGGSLRLSCAASGFGFSDFYMEWVRQAPGKGLEWVAASRHKANDYTTEYADSVKGRFTISRDNSKNTLYLQMNSLRAEDTAVYYCARDYYGSSYWYFDVWGQGTLVTVSS VL: DIQMTQSPSSLSASVGDRVTITCTASESLYSSKHKVHYLAWYQQKPGKAPKLLIYGASNRYIGVPSRFSGSGSGTDFTLTISSLQPEDFATYYCAQFYWYPLTFGGGTKVEIK : 0.31
